ASSAY COMMENT: Inhibition of Cryptococcus neoformans Can2 beta-carbonic anhydrase by stopped flow CO2 hydration assay
MEASURED PARAMETER: Ki (nM)

> print(dat)
                                    compound  recorded.result
 1       CCCCC(CC)C(=O)OC (stereo not given)              740
 2          O=C(O)c1ccc(S(=O)(=O)N(Cl)Cl)cc1              120
 3                       COc1ccc(C(=O)NO)cc1               71
 4                       COc1ccc(C(=O)NN)cc1               87
 5                         O=C(O)c1ccc(F)cc1              130
 6      CCCCC(CC)CCC(=O)O (stereo not given)            41200
 7                         O=C(O)c1ccc(O)cc1              9.5
 8              O=C(O)c1ccc([N+](=O)[O-])cc1              120
 9                       N#Cc1ccc(C(=O)O)cc1              140
10                       O=C(O)c1ccc(CCl)cc1             3650
11         CCC(C)CCC(=O)O (stereo not given)              800
12          CCC(C)CC(=O)O (stereo not given)            34900
13  Nc1ccc(C(=O)O)cc1 [AMINOBENZOATE SODIUM]              120
14                         Nc1cccc(C(=O)O)c1             3060
15        CCCCCC(C)C(=O)O (stereo not given)            39300

Cited source: ChEMBL document CHEMBL1759976
